Reported IC50 values for the following molecules.
Target: Carnitine O-palmitoyltransferase 1, muscle isoform (Homo sapiens, UniProt Q92523)
Sequence (Q92523 whole entry): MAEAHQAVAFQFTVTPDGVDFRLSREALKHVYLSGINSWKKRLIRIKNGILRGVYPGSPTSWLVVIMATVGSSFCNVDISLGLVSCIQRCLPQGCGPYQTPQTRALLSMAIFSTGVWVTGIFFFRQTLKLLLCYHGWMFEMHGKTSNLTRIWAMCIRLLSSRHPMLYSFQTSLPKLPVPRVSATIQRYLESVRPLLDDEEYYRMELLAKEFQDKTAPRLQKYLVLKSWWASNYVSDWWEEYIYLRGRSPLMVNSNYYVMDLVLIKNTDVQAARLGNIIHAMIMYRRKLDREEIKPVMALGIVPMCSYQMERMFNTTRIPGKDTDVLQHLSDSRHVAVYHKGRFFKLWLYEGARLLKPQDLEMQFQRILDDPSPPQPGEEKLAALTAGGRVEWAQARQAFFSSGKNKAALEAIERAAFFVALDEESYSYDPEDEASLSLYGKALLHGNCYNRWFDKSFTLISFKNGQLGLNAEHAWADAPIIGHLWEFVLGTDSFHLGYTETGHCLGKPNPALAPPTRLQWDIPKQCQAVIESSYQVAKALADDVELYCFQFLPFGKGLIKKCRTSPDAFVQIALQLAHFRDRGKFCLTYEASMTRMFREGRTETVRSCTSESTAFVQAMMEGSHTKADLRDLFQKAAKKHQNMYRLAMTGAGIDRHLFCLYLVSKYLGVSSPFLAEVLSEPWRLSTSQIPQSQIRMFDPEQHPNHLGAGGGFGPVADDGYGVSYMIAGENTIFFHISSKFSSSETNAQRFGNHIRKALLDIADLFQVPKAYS
Assay: SUPPLEMENTARY: Inhibition of Carnitine palmitoyltransferase 1, muscle isoform

Recorded IC50 for `Cc1cc(-c2noc([C@H]3CCCCN3C(=O)COc3ccccc3)n2)no1` on Carnitine O-palmitoyltransferase 1, muscle isoform (Homo sapiens, UniProt Q92523) was > 100 µM

Recorded IC50 for `COc1ccc(Cl)cc1S(=O)(=O)N1CCOc2ccc(C(=O)Nc3ccc(C(=O)O)c(Cl)c3)cc21` on Carnitine O-palmitoyltransferase 1, muscle isoform (Homo sapiens, UniProt Q92523) was 3.58 µM

Recorded IC50 for `Cc1cc(-c2nc([C@H]3CCCCN3C(=O)COc3ccccc3)no2)no1` on Carnitine O-palmitoyltransferase 1, muscle isoform (Homo sapiens, UniProt Q92523) was > 100 µM

Recorded IC50 for `CC(=O)NCc1cccc(-c2nc([C@H]3CCCCN3C(=O)COc3ccccc3)no2)c1` on Carnitine O-palmitoyltransferase 1, muscle isoform (Homo sapiens, UniProt Q92523) was > 100 µM

Recorded IC50 for `O=C(COc1ccccc1)N1CCCC[C@@H]1c1noc(-c2ccc(-n3cnnn3)cc2)n1` on Carnitine O-palmitoyltransferase 1, muscle isoform (Homo sapiens, UniProt Q92523) was > 100 µM

###

assay: SUPPLEMENTARY: PAMPA permeability assay; format: physicochemical; conditions: read-out: Permeability
measure_name: Papp (×10⁻⁶ cm/s)

1) COc1ccc(Cl)cc1S(=O)(=O)N1CCOc2ccc(C(=O)Nc3ccc(CC(=O)O)cc3)cc21	1.86
2) COc1ccc(Cl)cc1CN1C(=O)OCc2ccc(C(=O)Nc3nc(CC(=O)O)cs3)cc21	1.7
3) O=C(Nc1ccc(C(=O)O)c(F)c1)c1ccc2c(c1)N(S(=O)(=O)c1cccc(Cl)c1)CCO2	2.21
4) COc1ccc(Cl)cc1CN1C(=O)OC(C)(C)c2ccc(C(=O)Nc3nccs3)cc21	0.3

(I) COc1ccc(Cl)cc1S(=O)(=O)N[C@@H]1CCCN(C(=O)COc2ccccc2)C1
(II) O=C(COc1ccccc1)N1CCCC[C@@H]1c1noc(-c2ccc3[nH]cnc3c2)n1
INPUT: Looking at recorded values for Papp, does I or II come in lower? Your answer should be the label of the entry you select.
OUTPUT: I

(P) Cc1ncc(-c2noc([C@H]3CCCCN3C(=O)COc3ccccc3)n2)c(=O)[nH]1
(Q) COc1ccc(Cl)cc1CN1C(=O)OC(C)(C)c2ccc(C(=O)Nc3ccc(CC(=O)O)cc3)cc21
INPUT: Looking at recorded values for Papp, does P or Q come in lower? Your answer should be the label of the entry you select.
OUTPUT: Q
(Q: 1.71 ×10⁻⁶ cm/s, P: 3.03 ×10⁻⁶ cm/s)

(1) O=C(COc1ccccc1)N1CCCC[C@@H]1c1nc(-c2ccc(Cl)cc2)no1
(2) CCN(c1cc(C(=O)Nc2nc(CC(=O)O)cs2)cc2c1OCO2)S(=O)(=O)c1cc(Cl)ccc1OC
(3) Cc1cc(C)cc(S(=O)(=O)N2CCSc3ccc(C(=O)Nc4ccc(C(=O)O)cc4)cc32)c1
(4) O=C(O)c1ccc(NC(=O)c2ccc3ccn(S(=O)(=O)c4cccc(Cl)c4)c3c2)cc1
INPUT: Put the compounds in ascending order of Papp. Rank them, then answer with their labels in that order.
OUTPUT: 4, 1, 3, 2
(4: 0.6 ×10⁻⁶ cm/s, 1: 0.962 ×10⁻⁶ cm/s, 3: 1.79 ×10⁻⁶ cm/s, 2: 3.4 ×10⁻⁶ cm/s)

###

experiment: SUPPLEMENTARY: Lyophilisation Solubility Assay (LYSA); assay type: physicochemical; conditions: read-out: Kinetic_solubility
measure_name: solubility kinetic (µg/mL)

Known solubility kinetic results, listed for orientation:
1. O=C(COc1ccccc1)N1CCCC[C@@H]1c1nc(-c2ccc3[nH]ncc3c2)n[nH]1	53
2. COc1ccc(Cl)cc1S(=O)(=O)n1ccc2ccc(C(=O)Nc3ccc(CC(=O)O)cc3)cc21	61
3. COc1ccc(Cl)cc1S(=O)(=O)N1CCOc2c(C)cc(C(=O)Nc3ccc(CC(=O)O)cc3)cc21	502
4. COc1ccc(Cl)cc1S(=O)(=O)N1CCOc2c(Cl)cc(C(=O)Nc3ccn(CC(=O)O)n3)cc21	558
5. COc1ccc(Cl)cc1S(=O)(=O)N1COc2c(C)cc(C(=O)Nc3nc(CC(=O)O)cs3)cc21	195
6. COc1ccc(Cl)cc1S(=O)(=O)N1COCc2ccc(C(=O)Nc3ccc(C(=O)O)cc3)cc21	60
7. O=C([C@H]1CCCCN1C(=O)COc1ccccc1)N1Cc2ccc(Cl)cc2C1	15
8. COc1ccc(Cl)cc1S(=O)(=O)N1CCOc2c(Cl)cc(C(=O)Nc3ncc(CC(=O)O)s3)cc21	5
9. CN(Cc1ccccc1)C(=O)[C@H]1CCCCN1C(=O)COc1ccccc1	112
10. O=C(COc1ccccc1)N1CCCC[C@@H]1c1nc(-c2ccc(S(=O)(=O)NCCO)cc2)no1	65

(a) COc1ccc(Cl)cc1S(=O)(=O)N1COc2c(F)cc(C(=O)Nc3ccc(C(=O)O)c(F)c3)cc21
(b) O=C(COc1ccccc1)N1CCCC[C@@H]1c1noc(-c2ccc3snnc3c2)n1
(c) O=C1COc2ccc(-c3nc([C@H]4CCCCN4C(=O)COc4ccccc4)no3)cc2N1
(d) CCCN(c1cc(C(=O)Nc2nc(CC(=O)O)cs2)cc2c1OCO2)S(=O)(=O)c1cc(Cl)ccc1OC
INPUT: Put the molecules in ascending order of solubility kinetic. Rank them, then answer with their labels in that order.
OUTPUT: b, c, a, d

###

pIC50: −log10 of the molar value.
The next entries give measured pIC50 for Carnitine O-palmitoyltransferase 2, mitochondrial (Homo sapiens, UniProt P23786).

1) Cc1cc(C)cc(S(=O)(=O)c2nn(CC(=O)O)c3ccc(C(=O)Nc4ccccc4)cc23)c1	< 4.00
2) COc1ccc(Cl)cc1S(=O)(=O)c1cn(CC(N)=O)c2ccc(C(=O)Nc3ccccc3)cc12	< 4.00

Continue with the compound presented below.
Data point: COc1ccc(Cl)cc1[S+]([O-])c1c[nH]c2ccc(C(=O)Nc3ccccc3)cc12 (stereo not drawn) ; pIC50 = < 4.00

###

molecular target: Carnitine O-palmitoyltransferase 1, liver isoform (Rattus norvegicus, UniProt P32198); experiment: SUPPLEMENTARY: Inhibition of Carnitine palmitoyltransferase 1, liver isoform
Sequence (P32198 whole entry, canonical isoform): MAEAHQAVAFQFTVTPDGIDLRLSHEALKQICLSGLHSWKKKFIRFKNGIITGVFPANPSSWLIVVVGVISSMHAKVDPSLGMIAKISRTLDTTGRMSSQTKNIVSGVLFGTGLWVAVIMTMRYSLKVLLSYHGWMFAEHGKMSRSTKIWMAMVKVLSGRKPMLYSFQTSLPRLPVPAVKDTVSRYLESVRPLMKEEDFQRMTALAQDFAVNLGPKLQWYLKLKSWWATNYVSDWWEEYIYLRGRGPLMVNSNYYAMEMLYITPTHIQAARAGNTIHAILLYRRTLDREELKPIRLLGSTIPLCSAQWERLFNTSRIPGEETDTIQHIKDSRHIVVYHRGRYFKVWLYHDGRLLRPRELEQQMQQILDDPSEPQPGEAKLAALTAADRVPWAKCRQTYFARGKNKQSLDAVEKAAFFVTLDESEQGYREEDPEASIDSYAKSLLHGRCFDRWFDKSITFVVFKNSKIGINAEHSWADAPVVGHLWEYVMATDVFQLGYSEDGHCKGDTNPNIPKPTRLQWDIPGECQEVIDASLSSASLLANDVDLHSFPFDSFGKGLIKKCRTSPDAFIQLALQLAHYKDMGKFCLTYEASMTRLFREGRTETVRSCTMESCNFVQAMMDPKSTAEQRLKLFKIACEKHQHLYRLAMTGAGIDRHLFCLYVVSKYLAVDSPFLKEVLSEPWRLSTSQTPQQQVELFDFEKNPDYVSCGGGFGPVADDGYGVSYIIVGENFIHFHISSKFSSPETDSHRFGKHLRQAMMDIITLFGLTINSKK
measure_name: IC50 (nM)

Known IC50 results, listed for orientation:
1. O=C(COc1ccccc1)N1CCCC[C@@H]1c1nc(-c2ccc([N+](=O)[O-])o2)no1	297
2. CCOC(=O)c1cn2ccc(-c3noc([C@H]4CCCCN4C(=O)COc4ccccc4)n3)cc2n1	459
3. O=C([C@H]1CCCCN1C(=O)COc1ccccc1)N1CCN(c2cc(Cl)cc(Cl)c2)CC1	388

(P) COCCN(C)C(=O)c1cncc(-c2noc([C@H]3CCCCN3C(=O)COc3ccccc3)n2)c1
(Q) COc1ccc(Cl)cc1S(=O)(=O)N1CCOc2ccc(C(=O)Nc3ccc(C(=O)O)cc3)cc21
INPUT: Looking at recorded values for IC50, does P or Q come in lower? Your answer should be the label of the entry you select.
OUTPUT: Q
